Data origin: patent US20240059769A1

targetOfAssay: recombinant human IL-13 (human, UniProt P35225 35-146)
Sequence (P35225 35-146 limits assumed): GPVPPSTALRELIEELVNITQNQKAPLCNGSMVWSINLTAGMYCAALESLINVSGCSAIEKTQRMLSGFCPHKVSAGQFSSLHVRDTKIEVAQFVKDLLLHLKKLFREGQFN
procedureSummary: cell-based or functional assay
Assign labels as follows, please: class 1 for HEK-IL-13 [nM] (IC50, STAT6 reporter) below 0.03 nM; class 0 for HEK-IL-13 [nM] (IC50, STAT6 reporter) equal to or exceeding 0.03 nM.

These solved cases illustrate the format of a correct answer.
[
  {
    "binder": "BDG38.133 (antibody, V domains shown) VH: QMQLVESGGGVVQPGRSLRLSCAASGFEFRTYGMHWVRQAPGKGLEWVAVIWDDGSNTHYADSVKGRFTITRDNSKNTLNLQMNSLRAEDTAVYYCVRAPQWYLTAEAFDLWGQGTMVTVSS VL: SYILTQPPSVSVAPGETATITCGGNLIGARLVHWYQQKPGQAPVLVIYDDSDRPSRIPERFSGSNIGNTATLTISRVEAGDEADYYCQVWDYSSDTYVFGGGTKLTVL",
    "cat": "class 1"
  },
  {
    "binder": "BDG38.142 (antibody, V domains shown) VH: QMQLVESGGGVVQPGRSLTLSCAASGFEFRTYGMHWVRQAPGKGLEWVAVIWDDGSNTHYADSVKGRFTITRDNSKNTLNLQMNSLRAEDTAVYYCVRAPQWYLTAEAFDLWGQGTMVTVSS VL: SYILTQPPSVSVAPGQTATITCGGNLIGAKLVHWYQQKPGQAPVLVVYDDSDRPSRIPERFSGSNIGNTATLTIERVEEGDEADYYCQVWDYYSHTMVFGGGTKLTVL",
    "cat": "class 0"
  },
  {
    "binder": "BDG38.082 (antibody, V domains shown, IgG1) VH: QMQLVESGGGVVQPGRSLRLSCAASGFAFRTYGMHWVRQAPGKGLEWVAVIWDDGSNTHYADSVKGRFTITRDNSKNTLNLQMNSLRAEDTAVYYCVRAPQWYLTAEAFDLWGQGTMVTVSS VL: SYVLTQPPSVSVAPGETATITCGGNMIGGYLVHWYQQKPGQAPVLVIYDDVDRPDRIPERFSGSNSGNTATLTISRVEAGDEADYYCQVWDHDTNQVVFGGGTKLTVL",
    "cat": "class 0"
  }
]

Next binder, please.
Hello, is HEK-IL-13 [nM] (IC50, STAT6 reporter) of the following binder strictly smaller than 0.03 nM? BDG38.104 (antibody, V domains shown) VH: QMQLVESGGGVVQPGRSLTLSCAASGFEFRTYGMHWVRQAPGKGLEWVGVIWYDGSATHYADSVKGRFTITRDNSKNTLNLQMNSLRAEDTAVYYCVRAPQWYLTAEAFDLWGQGTMVTVSS VL: SYILTQPPSVSVAPGETATITCGGNLIGARLVHWYQQKPGQAPVLVIYDDSDRPSRIPERFSGSNIGNTATLTIEDVEEGDEADYYCQVWDYYSDSYVFGGGTKLTVL
class 0
